B1: CPEB3 Ribozyme (parent)
chain: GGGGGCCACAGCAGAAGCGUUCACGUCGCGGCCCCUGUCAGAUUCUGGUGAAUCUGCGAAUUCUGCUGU

Variants of: B1
assay-procedure: self-cleavage, relative activity (ratio to wild type); higher = more cleavage; co-transcriptional
A collection of variants and their measured self-cleavage
Give only the figure.

[[record]]
query_sequence = "GGGGGCCACAGCAGAAGCGUUCACGUCGCGGCACCUGUCAGAUUCUGGUGAAUCUGCGAAUUCUGCGGU [C33A U67G]"
measured_quantity = "self-cleavage"
result = 1.01


# context switch: different variant, same self-cleavage
Form field self-cleavage, entry GGGGUCCACAGCAGAAGCGUUCACGUCGCGGCCCCUGUCAGAUUUUGGUGAAUCUGCGAAUUCUGCUGU [G5U C45U] : 0.291
